Test system: COLO 205 colon
Test: NCI tumour cell line growth inhibition, 48 h
For each record, write down the corresponding TGI.

Examples from the recorded data:
* N=C(N)c1ccc(-c2ccc(-c3ccco3)o2)cc1F | 3.62 µM
* COc1cc2c(cc1C)NC(=O)/C2=C/c1c(C)nc2sc(C)cn12 | > 100 µM
* Cc1ccc(C2CC(c3cccc(Nc4ccncc4)c3)=NN2c2ccc(Cl)cc2)cc1 (stereo unspecified) | 3.6 µM

Provide TGI values for the following items, in order.
1. CC[C@@H]1C[C@@H](O)[C@@H]2[C@H](O)[C@H](O)CN2C1
2. CC(=O)O[C@@H]1CC(=O)O[C@@H]2C[C@@H](CC/C(Cl)=C/C/C=C\1C)O[C@@H]2CO
3. O=c1nc2[nH]nc(-c3ccccc3)c2n[nH]1

A.
["> 100 µM", "> 25 µM", "> 100 µM"]

---

Test system: SK-OV-3 ovarian
Experiment: NCI tumour cell line growth inhibition, 48 h
Hi there, I'd appreciate the recorded GI50 for every entry that follows.

Example entries begin here.
• COC(=O)/C(Br)=C/c1c[nH]c2ccc(Br)cc12 = 17.7 µM
• CCOC(=O)c1c2c(n3cccc(F)c13)C(=O)c1ncccc1C2=O = 0.223 µM
• N=C(N)c1ccc(-c2ccc(-c3ccco3)o2)cc1F = 3.2 µM
• COc1ccc2c(c1)c(=O)oc1cc(OC/C(=N\O)c3ccc(F)cc3)ccc12 = 30.4 µM
• CCC1=C[C@H]2CN(CCc3c([nH]c4ccccc34)[C@@](C(=O)OC)(c3cc4c(cc3OC)N(C)[C@H]3[C@@](O)(C(=O)OC)[C@H](OC(C)=O)[C@]5(CC)[C@@H]6C[C@@H]6CN6CC[C@]43[C@@H]65)C2)C1 = 0.0358 µM

Now look at this entry.
Q. I'd like to know its GI50. The compound in question is `Cc1cccc2c(=O)c3c(sc12)c(NCCN)nc1ccccc13`
A. 3.17 µM

---

Hi there, I'd appreciate the recorded TGI for every entry that follows.
System: ACHN renal
Assay: NCI tumour cell line growth inhibition, 48 h

• COC(=O)c1cc(/C=C2\Cc3cc4c(cc3C2=O)CCC4)cc2c1CCC2 = > 100 µM

For each of the molecules below, note its TGI.
1. O=[N+]([O-])c1ccc(C2N3CCCCC3[C@@H]3c4[nH]c5ccccc5c4CCN23)cc1 (stereo not given in full)
2. CCCC[Si](CCCC)(CCCC)O[C@@H](/C=C/C(=O)OCC)[C@H](Cc1ccccc1)O[Si](CCCC)(CCCC)CCCC
3. Nc1nc(Cl)cc(NCC2(CO)CCC(OCc3ccccc3)C2)n1 (stereo not given)
4. Nc1nc(Cl)cc(NCC2(CO)CC(Cc3ccccc3)C2)n1 (stereo not given)
5. O=C1/C(=c2\c3ccccc3n3c(=O)c4ccccc4nc23)Nc2ccccc21
6. Cc1cc2nc3c(C#N)c(-c4ccccc4)cc(Nc4cccc(C(F)(F)F)c4)n3c2cc1C
7. Clc1ccc(CSCc2ccc(Cl)cc2Cl)c(Cl)c1
8. O=C1CSc2ccncc2N1

A.
["43.8 µM", "> 100 µM", "> 100 µM", "> 100 µM", "> 100 µM", "28.5 µM", "> 100 µM", "> 100 µM"]

Q. I have this molecule here, COC(=O)C1CCc2nnc(-c3cccnc3)n21 (stereo not given) , and I need its recorded TGI.
A. > 100 µM
